# Tested on: CCRIS mutagenicity, Ames/micronucleus/aberration tests
# experiment description: CCRIS mutagenicity studies
# condition details: Test System: AMES SALMONELLA TYPHIMURIUM; Strain/Indicator: TA97; Metabolic Activation: RAT, LIVER, S-9, AROCLOR 1254; Method: STANDARD PLATE
The source made the active and inactive calls. No rule for the calls is given here.
Hello, when you answer, please use one of the following outcomes: active, inactive

Check the results log: what was the call for `C=CCc1ccc(O)c(O)c1` ? inactive

Please let me know the test result on file for `Cc1ncc([N+](=O)[O-])n1C` . active

Write down the call the test reported for this molecule. Item: `Br/C=C/Br` active

###

# System: CCRIS mutagenicity, Ames/micronucleus/aberration tests
# experiment description: CCRIS mutagenicity studies
# condition details: Test System: AMES SALMONELLA TYPHIMURIUM; Strain/Indicator: TA100; Metabolic Activation: NONE; Method: STANDARD PLATE
# Text: The CCRIS database contains chemical records with carcinogenicity, mutagenicity, tumor promotion, and tumor inhibition test results. It was developed by the National Cancer Institute (NCI). Data are derived from studies cited in primary journals, current awareness tools, NCI reports, and other sources. Test results have been reviewed by experts in carcinogenesis and mutagenesis. CCRIS provides historical information from the years 1985 - 2011. It is no longer updated. […]
Activity calls are given as the source filed them. No rule for the calls is given here.
The reply should name one outcome from active, inactive

Call for entry `C[C@H]1C=C(C=O)C(C=O)=C[C@]2(O)CC(C)(C)C[C@H]12` : active

# outcome recorded in this test, key = C1=CC2OC2c2ncccc21 (stereo not drawn) inactive

Assay result, entry `[N-]=[N+]=NC[C@@H](O)[C@H](O)[C@H](O)[C@@H](O)C(=O)O` — outcome? active

Hi, sorry to bother you, what did the test record for `c1ccc2c(c1)-c1cc3ccccc3cc1[C@H]1O[C@@H]21` ? active

For `Nc1c(Oc2ccccc2)cc(O)c2c1C(=O)c1ccccc1C2=O` , which call appears in the assay record? inactive

Look up the recorded call for `O=C/C=C/C=C\c1ccc([N+](=O)[O-])cc1` in this test. active

For this compound, state the assay outcome: `CC(C)(C)C1=CC(=O)C=CC1=O` inactive

Any idea what this test logged for `C[C@]1(Cn2ccnn2)[C@H](C(=O)O)N2C(=O)C[C@H]2S1(=O)=O` ? inactive

Which outcome was assigned to `Nc1c2ccccc2nc2ccccc12` in this test? inactive

Just curious, what result did `CCCCOc1cc(N=Nc2ccc(N(CC)CC)cc2)ccc1N=Nc1c(S(=O)(=O)O)cc2ccc(N)cc2c1O` get here? inactive

// return assay outcome for `COc1ccc2c(c1)[C@H]1CCCC[C@@H]1[C@H]1O[C@@H]21` inactive

Hi, sorry to bother you, what did the test record for `O[C@@H]1C=Cc2c(ccc3c2ccc2ccccc23)[C@H]1O` ? inactive

How did this test come out for `C[C@]12CC[C@@H]3c4ccc(O)cc4CC[C@H]3[C@@]13CC[C@]2(O)[C@H](O)C3` ? inactive

###

# Tested on: CCRIS mutagenicity, Ames/micronucleus/aberration tests
# experiment description: CCRIS mutagenicity studies
# condition details: Test System: AMES SALMONELLA TYPHIMURIUM; Strain/Indicator: TA98; Metabolic Activation: HAMSTER, LIVER, S-9, AROCLOR 1254 (10%); Method: PREINCUBATION
Active and inactive are the calls of the source. The rule behind the calls is not given here.
Pick one and only one: active, inactive

Kindly provide the recorded test outcome for the following molecule: CN(C)CCC(c1ccccc1)c1ccccn1 (stereo not given) inactive

Recorded test outcome, item `CC(=O)OCc1ccc2c(c1)OCO2` inactive

What did this assay record as the result for OC1C2(Cl)C3(Cl)C4(Cl)C(Cl)(Cl)C5(Cl)C3(Cl)C1(Cl)C5(Cl)C24Cl (stereo not given) ? inactive

Assay outcome for `CC(C)(C)OOC(C)(C)C` : what was it? inactive

// param item: `CC(=O)OCc1ccco1` ; yields the recorded call inactive

Each molecule tested received a call. Report the one for `Cl/C=C/Cl` . inactive

Record request — test call for `O=C(O)c1ccc(S(=O)(=O)N(Cl)Cl)cc1` inactive

What call does the record list for `Nc1ccn([C@@H]2O[C@H](CO)[C@@H](O)[C@@H]2O)c(=O)n1` ? inactive

Look up the recorded call for `O=C1[O][Bi][O]c2ccccc21` in this test. inactive

Each molecule tested received a call. Report the one for `Nc1ccc(Cl)cc1N` . active

For this molecule, state the assay outcome: `OCCCCl` inactive

Could you please tell me the result logged for `CNc1ccc(O)cc1` in this assay? inactive

Dear all, I need the recorded test outcome for `C=C1C/C(=C/C)C(=O)O[C@@H]2CCN3CC=C(COC(=O)[C@]1(C)O)[C@H]23` , thank you. inactive

Check the results log: what was the call for `Nc1ccc(F)cc1F` ? inactive

Tell me the assay call for `CN1C[C@H](C(=O)N[C@]2(C)O[C@@]3(O)[C@@H]4CCCN4C(=O)[C@H](Cc4ccccc4)N3C2=O)C=C2c3cccc4[nH]cc(c34)C[C@H]21` please. inactive

###

# Tested on: CCRIS mutagenicity, Ames/micronucleus/aberration tests
# experiment description: CCRIS mutagenicity studies
# condition details: Test System: AMES SALMONELLA TYPHIMURIUM; Strain/Indicator: TA98; Metabolic Activation: RAT, LIVER, S-9, PHENOBARBITAL AND 5,6-BENZOFLAVONE; Method: PREINCUBATION
Active and inactive are the calls of the source. The rule behind the calls is not given here.
property label: mutagenic call

compound	property label	value measured
N.N.O=C([O-])C1(C(=O)[O-])CCC1.[Pt+4]	mutagenic call	inactive; negative
Cc1oc(=O)oc1CN1CCN(c2cc3c(cc2F)c(=O)c(C(=O)O)c2n3C(C)S2)CC1 (stereo not drawn)	mutagenic call	inactive; negative
COc1cc(OC)c2c(=O)c3c(O)ccc(OC)c3oc2c1	mutagenic call	inactive; negative

###

# Tested on: CCRIS mutagenicity, Ames/micronucleus/aberration tests
# experiment description: CCRIS mutagenicity studies
# condition details: Test System: AMES SALMONELLA TYPHIMURIUM; Strain/Indicator: TA1535; Metabolic Activation: NONE; Method: STANDARD PLATE
Active and inactive are the calls of the source. The rule behind the calls is not given here.
Can you answer with just one of these options? yes (1) = active, no (0) = inactive

Lab log entry: `CC1=Nc2ccccc2C1(C)C` — outcome as called in the assay? no (0)

Outcome logged for `Nc1ccc(N)c2c1C(=O)c1cccc([N+](=O)[O-])c1C2=O` in this assay: no (0)

Give the logged outcome of this assay for the following molecule: `CC(C)N=C=NC(C)C` no (0)

Field: outcome | Entry: `CN(Cc1ccccc1)N=O` no (0)

I'd appreciate the recorded outcome for CCC(C)ON=O (centres undefined) from this test. no (0)

What did this assay record as the result for `O=P(O)(O)Oc1c(Br)cc(Br)cc1-c1cc(Br)cc(Br)c1O` ? no (0)

Write down the call the test reported for this molecule. Item: CCOCC1CO1 (centres undefined) yes (1)

Hi, sorry to bother you, what did the test record for `Nc1ccn([C@@H]2C=C(CO)[C@@H](O)[C@H]2O)c(=O)n1` ? no (0)

Could you kindly confirm the outcome this assay logged for `C=CC#N` ? no (0)

###

# Test system: CCRIS mutagenicity, Ames/micronucleus/aberration tests
# experiment description: CCRIS mutagenicity studies
# condition details: Test System: AMES SALMONELLA TYPHIMURIUM; Strain/Indicator: TA1535; Metabolic Activation: S-9; Method: PREINCUBATION
Activity calls are given as the source filed them. The rule behind the calls is not given here.

compound	target entity	mutagenic call
COC(=O)C1=C(C)NC(C)=C(C(=O)OCC(C)=O)C1c1ccccc1[N+](=O)[O-] (centres undefined)	CCRIS mutagenicity, Ames/micronucleus/aberration tests	inactive; negative
CCOCn1cc(F)c(=O)n(C(=O)c2cccc(C(=O)Oc3nc(OC(=O)c4ccccc4)ccc3C#N)c2)c1=O	CCRIS mutagenicity, Ames/micronucleus/aberration tests	inactive; negative
CCN(CC)CCCN(c1ccccc1)C1Cc2ccccc2C1	CCRIS mutagenicity, Ames/micronucleus/aberration tests	inactive; negative

###

# System: CCRIS mutagenicity, Ames/micronucleus/aberration tests
# experiment description: CCRIS mutagenicity studies
# condition details: Test System: CHINESE HAMSTER V-79; Strain/Indicator: V-79/6-THIOGUANINE; Metabolic Activation: NONE
The source made the active and inactive calls. The rule behind the calls is not given here.
Use one of these outcomes when replying: true (1) = active, false (0) = inactive

So what was the verdict on `Oc1c2c(c3c(ccc4c3ccc3ccc5ccccc5c34)c1O)O2` in this test? true (1)

Please indicate how the test categorized `O=[N+]([O-])c1cc(Cl)cc(Cl)c1O` . false (0)

Just curious, what result did `CC[C@@H](C)OS(C)(=O)=O` get here? true (1)

Recorded test call requested for `[O]=[Cr][O][Cr]=[O]` true (1)

Just curious, what result did OCC(O)CN1CCN(c2ccccc2)CC1 (stereo unspecified) get here? false (0)

Outcome? `Oc1ccccc1O` true (1)
